experiment: inhibitors of TNFa-induced NFkB p65 translocation, primary screen, imaging, HUVEC, MLSMR starter and 10KST1 sets (AID 438); conditions: HUVEC TNFa-induced p65 nuclear translocation; measured here: nuclei count (cytotoxicity indicator), at 2.08 µM;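 also: compound added about 3h40 before a 20 min TNFalpha stimulation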
readout-label: cell count
Lab note: jot the number down without any unit.

compound | cell count
O=C(O)C1CC=CCC1C(=O)N1CCN(c2nc(-c3ccccc3)c3ccccc3n2)CC1 (stereo not drawn) | 373

In: Query cell count for "COc1ccccc1C(=O)N1CCN(Cc2ccc3c(c2)OCO3)CC1"
Out: 590

In: Query cell count for "COc1cccc(-c2nnc3sc(-c4ccc(Cl)cc4)nn23)c1"
Out: 588

In: Query cell count for COc1ccc(NC2CC(=O)N(C)C2=O)cc1 (stereo not drawn)
Out: 334

In: Query cell count for "C[C@]12C=CC(=O)C=C1CC[C@@H]1[C@@H]2[C@@H](O)C[C@@]2(C)[C@H]1CC[C@]2(O)C(=O)COC(=O)CCC(=O)O"
Out: 671

In: Query cell count for COc1ccc(OC)c(C2/C(=C(/O)c3cnn(-c4ccccc4)c3C)C(=O)C(=O)N2CCN(C)C)c1 (stereo not drawn)
Out: 452

###

Below is a list of entries, each paired with its recorded NADPH fluorescence slope value.
molecular target: Voltage-gated potassium channel subunit beta-2 (Rattus norvegicus) (UniProt P62483); test: KvBeta positive modulators, primary screen, biochemical, NADPH fluorescence (AID 623); conditions: Recombinant KvBeta, NADPH fluorescence decrease slope, 10 min; at 10 µM; stronger effect = lower value;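 also: fluorescence intensity change per second fitted from 20 to 320 s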
Sequence (P62483 whole entry, looked up): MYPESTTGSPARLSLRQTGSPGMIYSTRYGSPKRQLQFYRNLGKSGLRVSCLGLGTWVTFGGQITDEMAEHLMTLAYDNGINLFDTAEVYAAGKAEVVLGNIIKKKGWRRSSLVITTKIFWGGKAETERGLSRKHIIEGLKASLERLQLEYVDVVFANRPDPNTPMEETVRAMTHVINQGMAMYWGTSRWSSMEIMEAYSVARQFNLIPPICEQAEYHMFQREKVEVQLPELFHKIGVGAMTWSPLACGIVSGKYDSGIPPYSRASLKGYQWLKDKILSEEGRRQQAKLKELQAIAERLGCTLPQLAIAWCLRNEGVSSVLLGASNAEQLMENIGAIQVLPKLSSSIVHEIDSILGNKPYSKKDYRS
Lab note: jot the number down without any unit.

compound | NADPH fluorescence slope
CCCSc1nnc2n(C)c(=O)c3c4c(sc3n12)CCC4 | -7.9e-05

In: Give NADPH fluorescence slope; test system Voltage-gated potassium channel subunit beta-2 (Rattus norvegicus) (UniProt P62483); compound "C=CCOc1nc2c(c(=O)n(C)c(=O)n2C)n1Cc1ccc(Cl)cc1"
Out: -0.000102

In: Give NADPH fluorescence slope; test system Voltage-gated potassium channel subunit beta-2 (Rattus norvegicus) (UniProt P62483); compound "Cc1cc(NS(=O)(=O)c2ccc(N)cc2)no1"
Out: -2.3e-05

In: Give NADPH fluorescence slope; test system Voltage-gated potassium channel subunit beta-2 (Rattus norvegicus) (UniProt P62483); compound "CC(=O)Nn1cnc2c(c1=O)C1(CCCC1)Cc1ccccc1-2"
Out: -2e-06

In: Give NADPH fluorescence slope; test system Voltage-gated potassium channel subunit beta-2 (Rattus norvegicus) (UniProt P62483); compound "Cc1c(CCC#N)c(N2CCCCC2)n2c(nc3ccccc32)c1C#N"
Out: -2.7e-05

In: Give NADPH fluorescence slope; test system Voltage-gated potassium channel subunit beta-2 (Rattus norvegicus) (UniProt P62483); compound "COC(=O)c1ccc(=O)n(Cc2ccc3c(c2)OCO3)c1"
Out: -4.6e-05

In: Give NADPH fluorescence slope; test system Voltage-gated potassium channel subunit beta-2 (Rattus norvegicus) (UniProt P62483); compound "O=C(O)c1ccccc1Nc1cccc(C(F)(F)F)c1"
Out: -3.9e-05

###

target: Voltage-gated potassium channel subunit beta-2 (Rattus norvegicus) (UniProt P62483); experiment: KvBeta enzyme negative modulators, primary screen, biochemical, NADPH fluorescence (AID 622); settings: recombinant KvBeta, 4-cyanobenzaldehyde reduction, at 10 µM, stronger effect = higher value;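 also: slope of raw intensity against log time taken from 70 to 1610 s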
Short version: fluorescence slope at least -0.4 is met, less is not met.

Please review the following examples before continuing.
molecule | study-target | label-value
OC(CCN1CCCCC1)(c1ccccc1)c1ccccc1 | Voltage-gated potassium channel subunit beta-2 (Rattus norvegicus) (UniProt P62483) | not met
CN1C(=O)CC(N2CCN(c3ccc(Cl)c(Cl)c3)CC2)C1=O (stereo not drawn) | Voltage-gated potassium channel subunit beta-2 (Rattus norvegicus) (UniProt P62483) | not met
Cn1c(OCc2cccnc2)nc2c1c(=O)n(Cc1ccc(Cl)cc1)c(=O)n2C | Voltage-gated potassium channel subunit beta-2 (Rattus norvegicus) (UniProt P62483) | not met
COc1ccc(C(CC(=O)N2CCOCC2)C(C)C)cc1 (stereo not drawn) | Voltage-gated potassium channel subunit beta-2 (Rattus norvegicus) (UniProt P62483) | not met
CCN1CCN(c2cc3c(cc2F)c(=O)c(C(=O)O)cn3C2CC2)CC1 | Voltage-gated potassium channel subunit beta-2 (Rattus norvegicus) (UniProt P62483) | not met
CCC1(C)Cc2c(sc3nc4n(c(=O)c23)CCS4)CO1 (stereo not drawn) | Voltage-gated potassium channel subunit beta-2 (Rattus norvegicus) (UniProt P62483) | met
Cc1ccc(S(=O)(=O)NC(=O)NN2CCCCCC2)cc1 | Voltage-gated potassium channel subunit beta-2 (Rattus norvegicus) (UniProt P62483) | not met
CC(O)Cn1ccccc1=N (stereo not drawn) | Voltage-gated potassium channel subunit beta-2 (Rattus norvegicus) (UniProt P62483) | met

In: State whether the measured fluorescence slope reaches -0.4, counting equality as reaching it, for "Cn1ccnc1SCCC#N"
Out: not met

In: State whether the measured fluorescence slope reaches -0.4, counting equality as reaching it, for "Cc1nc(N2CCOCC2)c(C#N)c2c1COC(C)(C)C2"
Out: not met

In: State whether the measured fluorescence slope reaches -0.4, counting equality as reaching it, for O=C(NCc1ccco1)c1cnn2c1NC(c1ccccc1)CC2C(F)(F)F (stereo not drawn)
Out: not met

In: State whether the measured fluorescence slope reaches -0.4, counting equality as reaching it, for "COc1cccc(-c2nc(NCc3ccco3)c3ccccc3n2)c1O"
Out: met

In: State whether the measured fluorescence slope reaches -0.4, counting equality as reaching it, for CC[C@]1(O)CC2CN(CCc3c([nH]c4ccccc34)[C@@](C(=O)OC)(c3cc4c(cc3OC)N(C=O)[C@H]3[C@@](O)(C(=O)OC)[C@H](OC(C)=O)[C@]5(CC)C=CCN6CC[C@]43[C@@H]65)C2)C1 (stereo partly drawn)
Out: not met

In: State whether the measured fluorescence slope reaches -0.4, counting equality as reaching it, for "Cc1cn([C@H]2C[C@H](N=[N+]=[N-])[C@@H](CO)O2)c(=O)[nH]c1=O"
Out: not met

In: State whether the measured fluorescence slope reaches -0.4, counting equality as reaching it, for "CCc1nc(SCc2cccnc2)c(C#N)cc1C"
Out: met

Attribution: PubChem BioAssay
